Reference source: patent US20220112288A1

target: T1, Rhesus macaque CD4-HIS (Acro Biosystems, Cat. CD4-C52H7) (rhesus macaque, UniProt P16003 26-390); assay: BLI Octet, mAb on anti-mouse Fc sensor, rhesus CD4-HIS 25-100 nM, 1:1 global fit;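 note: purified antibodies captured at 10 µg/mL, rhesus CD4 analyte run as a three-concentration serial dilution, irrelevant antibody as reference control, one kinetic constant set per antibody from global fitting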
T1 construct: Bought reagent; also called Rhesus CD4; rhesus CD4-HIS; not shown: His tag
T1 sequence (P16003 26-390 limits assumed): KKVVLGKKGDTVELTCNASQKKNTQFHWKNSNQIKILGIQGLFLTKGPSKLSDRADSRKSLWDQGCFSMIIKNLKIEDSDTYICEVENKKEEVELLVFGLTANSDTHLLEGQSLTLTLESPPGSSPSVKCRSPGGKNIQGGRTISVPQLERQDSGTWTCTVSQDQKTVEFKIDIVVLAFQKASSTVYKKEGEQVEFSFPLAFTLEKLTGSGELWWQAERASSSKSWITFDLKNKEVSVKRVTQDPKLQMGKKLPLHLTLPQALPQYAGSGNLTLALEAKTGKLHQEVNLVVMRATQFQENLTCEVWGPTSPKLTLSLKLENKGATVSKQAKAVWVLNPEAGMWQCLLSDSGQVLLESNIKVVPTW
Known pKd of a selection of binders
The read-out pKd is expressed as -log10 of concentration in moles per litre.

See these solved cases before continuing.
75110_01J17A (antibody, V domains shown, Tested as antibody purified from AlivaMab Mouse hybridoma supernatant (captured by anti-mouse IgG Fc)) VH: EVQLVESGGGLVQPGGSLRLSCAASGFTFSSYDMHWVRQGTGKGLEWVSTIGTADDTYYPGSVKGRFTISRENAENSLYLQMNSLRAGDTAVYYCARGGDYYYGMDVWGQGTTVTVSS VL: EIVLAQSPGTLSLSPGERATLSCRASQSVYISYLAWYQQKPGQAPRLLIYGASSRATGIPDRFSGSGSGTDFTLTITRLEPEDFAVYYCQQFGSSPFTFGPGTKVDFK :: 7.66
75110_04H17A (antibody, V domains shown, Tested as antibody purified from AlivaMab Mouse hybridoma supernatant (captured by anti-mouse IgG Fc)) VH: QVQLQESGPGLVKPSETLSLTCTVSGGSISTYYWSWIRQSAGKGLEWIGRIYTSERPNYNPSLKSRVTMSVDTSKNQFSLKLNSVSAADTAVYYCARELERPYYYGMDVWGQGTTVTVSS VL: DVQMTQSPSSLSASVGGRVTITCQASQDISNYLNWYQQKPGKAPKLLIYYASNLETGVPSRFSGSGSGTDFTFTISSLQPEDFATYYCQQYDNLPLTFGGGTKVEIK :: 8.77
75110_01J09A (antibody, V domains shown, Tested as antibody purified from AlivaMab Mouse hybridoma supernatant (captured by anti-mouse IgG Fc)) VH: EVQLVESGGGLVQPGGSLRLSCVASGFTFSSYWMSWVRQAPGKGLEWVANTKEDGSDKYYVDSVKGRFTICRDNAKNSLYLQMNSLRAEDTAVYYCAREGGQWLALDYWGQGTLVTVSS VL: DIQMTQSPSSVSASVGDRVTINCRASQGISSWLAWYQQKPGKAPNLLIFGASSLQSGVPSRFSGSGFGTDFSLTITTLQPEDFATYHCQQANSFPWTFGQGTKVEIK :: 7.15

Exercise: Give the reported pKd for this binder. 75110_01G11A (antibody, V domains shown, Tested as antibody purified from AlivaMab Mouse hybridoma supernatant (captured by anti-mouse IgG Fc)) VH: EVQLVESGGGLVQPGGSLRLSCAASGFTFSSYDMHWVRQATGKGLEWVSTIGTAGDTYYPGSVKGRFTISRENARNSLFLQMNSLRAGDTAVYYCARGGDYYYGMDVWGQGTTVTVSS VL: EIVLTQSPGTLSLFPGERATLSCRASQNTYSSYLAWYQQKPGQAPRLLIYGASNRATGIPDRFSGSGSGTDFTLTISRLEPEDFAVYYCQQHGTSPFTFGPGTKVDIK
Solution: 7.19

Exercise: Input 75110_02E22A (antibody, V domains shown, Tested as antibody purified from AlivaMab Mouse hybridoma supernatant (captured by anti-mouse IgG Fc)) VH: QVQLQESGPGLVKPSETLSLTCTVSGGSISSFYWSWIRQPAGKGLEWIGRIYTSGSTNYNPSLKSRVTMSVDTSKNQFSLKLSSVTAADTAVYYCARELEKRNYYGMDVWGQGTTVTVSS VL: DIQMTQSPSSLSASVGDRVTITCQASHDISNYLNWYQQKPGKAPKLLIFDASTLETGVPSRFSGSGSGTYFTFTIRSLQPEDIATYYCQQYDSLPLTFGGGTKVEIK , output reported pKd.
Solution: 7.29
